Examples of compounds with documented IC50 follow.
System: HUVEC
assay_info: Antiproliferative activity against HUVEC after 72 hrs by MTT assay
Assay type: cell-based
stated_conditions: Homo sapiens
Provide only the numeric value, understood in nM.

1. CO[C@H]1C([C@@]2(C)O[C@@H]2CC=C(C)C)[C@]2(CC[C@H]1OC(=O)NCCN1CCCC1)CO2 (single isomer, unassigned) = 0.1
2. COC(=O)[C@@H](CC(C)C)NC(=O)O[C@@H]1CC[C@]2(CO2)C([C@@]2(C)O[C@@H]2CC=C(C)C)[C@@H]1OC (single isomer, unassigned) = 0.038

May I ask what IC50 has been recorded for CO[C@H]1C([C@@]2(C)O[C@@H]2CC=C(C)C)[C@]2(CC[C@H]1OC(=O)NCCC1CCCN1C)CO2 (single isomer, unassigned) ?
0.2
